Every entry's value here was drawn from patent US20210246166A1.

- SYSTEM_NAME: T1, Recombinant human MASP1 enzyme (fragment corresponding to amino acids 297-699, C-terminal His Tag) (human, UniProt P48740 297-699)
- T1 sequence: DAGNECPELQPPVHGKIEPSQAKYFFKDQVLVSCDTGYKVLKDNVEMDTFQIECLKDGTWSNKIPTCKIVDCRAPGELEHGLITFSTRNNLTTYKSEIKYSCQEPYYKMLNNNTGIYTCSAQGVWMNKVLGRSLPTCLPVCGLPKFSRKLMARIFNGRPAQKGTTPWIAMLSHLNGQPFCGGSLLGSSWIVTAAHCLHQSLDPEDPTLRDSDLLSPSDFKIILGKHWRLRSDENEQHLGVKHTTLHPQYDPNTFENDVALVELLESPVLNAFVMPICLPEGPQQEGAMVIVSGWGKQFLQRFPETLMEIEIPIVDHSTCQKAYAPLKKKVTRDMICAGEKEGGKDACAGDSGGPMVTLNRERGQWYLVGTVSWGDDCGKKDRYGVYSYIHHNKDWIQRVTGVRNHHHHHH
- MEASUREMENT_NOTES: cell-based or functional assay
Numbered stars: 1 amine (or outer) side, 2 acyl side, 3 side chain; on linkers, the order of the positions; unused ones are H or OH. Bridge positions count the residues as written; N and C are the ends. Square brackets hold non-standard residues; d marks the D form. Ends that are not written are not given here. Phe(2,5-diF) = O=C([C@H](Cc1cc(F)ccc1F)N[*:1])[*:2]; Pen = CC(C)(S)[C@H](N)C(=O)O; Sar = CNCC(=O)O
READOUT_LABEL: human MASP1 IC50
The reply should read as a number followed by its unit.

Ask: Entry under review: [Sar]ICSRS[Phe(2,5-diF)]PPI[Pen]IPD-OH (disulfide 3-11; N-terminus assumed; SMILES CC[C@H](C)[C@H](NC(=O)CNC)C(=O)N[C@H]1CSSC(C)(C)[C@@H](C(=O)N[C@H](C(=O)N2CCC[C@H]2C(=O)N[C@@H](CC(=O)O)C(=O)O)[C@@H](C)CC)NC(=O)[C@H]([C@@H](C)CC)NC(=O)[C@@H]2CCCN2C(=O)[C@@H]2CCCN2C(=O)[C@H](Cc2cc(F)ccc2F)NC(=O)[C@H](CO)NC(=O)[C@H](CCCNC(=N)N)NC(=O)[C@H](CO)NC1=O) [((N-Me)G)-IC+SRS-((2,5-Difluoro)F)-PPI-(Pen)+IPD-OH] . Reported human MASP1 IC50?
Reply: 18 nM
